Experiment: in vitro
Details: human, HeLa cells
recorded endpoint: cytotoxicity at 24 h, 10 µM (%)
Answers are plain numbers, in %.

Could you tell me which cytotoxicity at 24 h, 10 µM is on file for COc1cccc2c1C(=O)c1c(O)c3c(c(O)c1C2=O)C[C@@](O)(C(=O)CO)C[C@@H]3O[C@H]1C[C@H](N)[C@H](O)[C@H](C)O1 [free doxorubicin, doxorubicin] ?
44

----------
Test: in vitro
Settings: human, MCF-7 cells
recorded endpoint: cytotoxicity at 48 h, 100 µM (%)
Numbers only, in %.

Entry COc1cccc2c1C(=O)c1c(O)c3c(c(O)c1C2=O)C[C@@](O)(C(=O)CO)C[C@@H]3O[C@H]1C[C@H](N)[C@H](O)[C@H](C)O1 [free doxorubicin, doxorubicin] : reported cytotoxicity at 48 h, 100 µM = ?
44
